# system name: human recombinant HDAC6 (Homo sapiens, UniProt Q9UBN7)
# Construct: purchased Calbiochem 382180
# test description: HDAC enzyme activity inhibition assay (HDAC6, fluorimetric kit)
# Format: biochemical
# settings: HDAC6 versus HDAC1
experimental readout: HDAC6 selectivity (fold)

Example entries begin here.
O=C(CN1CC[C@H](O)C1)N(Cc1ccc(-c2nnc(C(F)F)o2)cc1F)c1ccc(F)c(Cl)c1; 1042
CCCC(=O)N(Cc1ccc(-c2nnc(C(F)F)o2)cc1F)c1cccc(F)c1; 1149
CC(C)CC(=O)N(Cc1ccc(-c2nnc(C(F)F)o2)cc1F)c1cccc(F)c1; 847

a. CCC(=O)N1CC(C(=O)N(Cc2ccc(-c3nnc(C(F)(F)F)o3)cc2)c2ccccc2)C1
b. CCC(=O)N1CCC(C(=O)N(Cc2ccc(-c3nnc(C(F)(F)F)o3)cc2)c2ccccc2)CC1
c. CCC(=O)N1CC(C(=O)N(Cc2ccc(-c3nnc(C(F)F)o3)cc2F)c2cccc(F)c2)C1
Q: Order the records so the highest HDAC6 selectivity (fold) appears first and the lowest last. Reply with the labels, ordered as the question asks.
Result: c, a, b
(c: 1786 fold, a: 1111 fold, b: 483 fold)

* * *

# system name: human recombinant HDAC6 (Homo sapiens, UniProt Q9UBN7)
# Construct: purchased Calbiochem 382180
# test description: HDAC enzyme activity inhibition assay (HDAC6, fluorimetric kit)
# Format: biochemical
# settings: HDAC6 versus HDAC1
experimental readout: HDAC6 selectivity (fold)

Solved cases (2 shown):
CC(=O)N1CC(C(=O)N(Cc2ccc(-c3nnc(C(F)F)o3)cc2F)c2cccc(F)c2)C1; 1961
CC(=O)N(Cc1ccc(-c2nnc(C(F)(F)F)o2)cc1F)c1cccc(F)c1; 1087

1. CCN1CCC(C(=O)N(Cc2ccc(-c3nnc(C(F)(F)F)o3)cc2)c2ccccc2)CC1
2. O=C(c1ccncc1)N(Cc1ccc(-c2nnc(C(F)(F)F)o2)cn1)c1cccc(F)c1
Q: Min HDAC6 selectivity (fold)? 1 | 2 Response format: the label of the selected entry.
Result: 1

A. O=C(c1ccncc1)N(Cc1ccc(-c2nnc(C(F)(F)F)o2)cc1)c1ccccc1
B. CCCN1CC(C(=O)N(Cc2ccc(-c3nnc(C(F)F)o3)cc2F)c2cccc(F)c2)C1
C. CN1CCC(C(=O)N(Cc2ccc(-c3nnc(C(F)(F)F)o3)cc2F)c2ccccc2)CC1
Q: Order the records, beginning with the lowest HDAC6 selectivity (fold) and ending with the highest. Would you mind listing the labels in the order asked for?
Result: A, C, B

* * *

# system name: human recombinant HDAC1 (Homo sapiens, UniProt Q13547)
# Construct: purchased Enzo Life Science BML-SE456
# Sequence (Q13547 whole entry): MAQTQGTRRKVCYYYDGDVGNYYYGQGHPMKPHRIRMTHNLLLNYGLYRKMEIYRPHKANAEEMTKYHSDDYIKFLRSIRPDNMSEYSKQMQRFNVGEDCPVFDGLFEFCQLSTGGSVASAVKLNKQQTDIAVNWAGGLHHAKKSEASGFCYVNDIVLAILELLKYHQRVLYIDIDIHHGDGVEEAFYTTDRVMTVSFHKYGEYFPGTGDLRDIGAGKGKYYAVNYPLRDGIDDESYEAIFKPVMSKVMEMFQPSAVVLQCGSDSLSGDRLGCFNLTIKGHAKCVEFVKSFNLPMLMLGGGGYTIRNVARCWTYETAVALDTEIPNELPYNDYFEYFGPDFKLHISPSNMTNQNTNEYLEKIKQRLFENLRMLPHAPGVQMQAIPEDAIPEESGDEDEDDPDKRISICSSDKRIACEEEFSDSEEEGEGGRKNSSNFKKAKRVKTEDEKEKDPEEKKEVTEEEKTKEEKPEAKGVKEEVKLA
# test description: HDAC enzyme activity inhibition assay (HDAC1, fluorimetric kit)
# Format: biochemical
# settings: 0.3 μg enzyme, 10 μM substrate, 30° C., 60 minutes
experimental readout: IC50 (µM)
Write the answer as a number in µM, unit excluded.

Sample O=C(C1CCN(Cc2ccccc2)CC1)N(Cc1ccc(-c2nnc(C(F)(F)F)o2)cc1)c1ccccc1 ; IC50 observed: 27.2

* * *

# system name: human recombinant HDAC6 (Homo sapiens, UniProt Q9UBN7)
# test description: HDAC enzyme activity inhibition assay (HDAC6, fluorimetric kit)
# settings: same protocol as the HDAC1 test
pIC50: −log10 of the molar value.
experimental readout: pIC50

CN1CC(C(=O)N(Cc2ccc(-c3nnc(C(F)F)o3)cc2F)c2ccccc2)C1; 7.35
CCS(=O)(=O)N1CC(C(=O)N(Cc2ccc(-c3nnc(C(F)F)o3)cc2F)c2cccc(F)c2)C1; 7.42
CC(C)N1CC(C(=O)N(Cc2ccc(-c3nnc(C(F)F)o3)cc2F)c2ccccc2)C1; 7.39

P. CCC(=O)N1CC(C(=O)N(Cc2ccc(-c3nnc(C(F)(F)F)o3)cc2F)c2ccccc2)C1
Q. O=C(C1CCN(C(=O)C(F)(F)F)CC1)N(Cc1ccc(-c2nnc(C(F)(F)F)o2)cc1F)c1ccccc1
Q: Given the listed items, does P or Q have the lesser reported pIC50? Answer = label.
Result: Q
(Q: 6.43, P: 7.19)

I. CS(=O)(=O)N1CC(C(=O)N(Cc2ccc(-c3nnc(C(F)F)o3)cc2F)c2ccccc2)C1
II. CC(C)C(=O)N1CC(C(=O)N(Cc2ccc(-c3nnc(C(F)(F)F)o3)cc2)c2ccccc2)C1
Q: In the pair I and II , the larger recorded pIC50 belongs to which? Refer to your chosen entry by its label in the reply.
Result: I
(I: 7.33, II: 7.05)

a. CC(C)N1CC(C(=O)N(Cc2ccc(-c3nnc(C(F)F)o3)cc2F)c2cccc(F)c2)C1
b. CC(=O)N1CC(C(=O)N(Cc2ccc(-c3nnc(C(F)F)o3)cc2F)c2ccccc2)C1
Q: From the items above, decide which of a and b has the lower pIC50 reading. # answer = label of selected item
Result: a

A. O=C(c1ccncc1)N(Cc1ccc(-c2nnc(C(F)F)o2)cc1F)c1cccc(F)c1
B. O=C(c1cccnc1)N(Cc1ccc(-c2nnc(C(F)F)o2)cn1)c1cccc(F)c1
Q: Please tell me which of the two, A or B , has the higher reported pIC50 value. Lab note: record the label of whichever item you select.
Result: B
(B: 7.62, A: 7.41)

* * *

# system name: human recombinant HDAC6 (Homo sapiens)
# Construct: purchased Calbiochem 382180
# Sequence (Q9UBN7 1-1215): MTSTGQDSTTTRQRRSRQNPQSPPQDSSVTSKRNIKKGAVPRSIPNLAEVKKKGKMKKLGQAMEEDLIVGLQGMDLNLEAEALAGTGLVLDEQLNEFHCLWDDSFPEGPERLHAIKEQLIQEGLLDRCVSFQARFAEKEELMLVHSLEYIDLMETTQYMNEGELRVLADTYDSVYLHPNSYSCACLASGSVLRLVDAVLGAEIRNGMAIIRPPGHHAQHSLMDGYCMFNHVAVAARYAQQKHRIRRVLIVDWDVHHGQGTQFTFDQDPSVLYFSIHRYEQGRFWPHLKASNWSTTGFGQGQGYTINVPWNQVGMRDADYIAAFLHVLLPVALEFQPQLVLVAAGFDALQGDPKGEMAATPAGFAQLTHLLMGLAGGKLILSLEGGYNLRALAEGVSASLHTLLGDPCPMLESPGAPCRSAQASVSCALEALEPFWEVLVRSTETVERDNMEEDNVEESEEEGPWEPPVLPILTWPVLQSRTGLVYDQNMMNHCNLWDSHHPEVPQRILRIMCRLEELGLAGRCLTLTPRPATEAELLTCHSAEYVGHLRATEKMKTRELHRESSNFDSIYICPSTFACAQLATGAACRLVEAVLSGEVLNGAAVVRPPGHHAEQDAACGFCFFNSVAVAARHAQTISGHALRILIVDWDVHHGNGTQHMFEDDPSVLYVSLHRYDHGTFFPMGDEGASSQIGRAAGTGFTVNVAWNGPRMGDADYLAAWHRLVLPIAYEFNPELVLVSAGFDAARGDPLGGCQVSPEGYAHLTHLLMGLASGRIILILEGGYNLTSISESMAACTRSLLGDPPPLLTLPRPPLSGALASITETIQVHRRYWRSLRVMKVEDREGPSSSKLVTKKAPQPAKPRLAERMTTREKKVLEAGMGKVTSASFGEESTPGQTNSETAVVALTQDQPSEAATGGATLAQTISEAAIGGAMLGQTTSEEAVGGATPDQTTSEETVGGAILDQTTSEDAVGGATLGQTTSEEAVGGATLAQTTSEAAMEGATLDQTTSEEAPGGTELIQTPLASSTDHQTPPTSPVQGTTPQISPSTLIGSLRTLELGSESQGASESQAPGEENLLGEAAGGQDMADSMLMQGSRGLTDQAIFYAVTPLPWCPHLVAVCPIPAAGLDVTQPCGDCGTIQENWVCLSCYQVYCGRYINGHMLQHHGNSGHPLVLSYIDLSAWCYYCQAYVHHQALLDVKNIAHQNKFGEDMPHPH
# test description: HDAC enzyme activity inhibition assay (HDAC6, fluorimetric kit)
# Type: biochemical
# settings: HDAC6 versus HDAC1
# Procedure: In order to examine the HDAC6 selectivity of the compounds of formula I of the present invention by HDAC1 and HDAC6 enzymatic activity inhibition assays, an experiment was performed using a conventional substance as a control. HDAC enzyme activity was measured using a HDAC Fluorimetric Drug Discovery Kit (BML-AK511, 516) from Enzo Life Science. […] Based on the resulting values, each IC50 value was calculated using GraphPad Prism4.0 program.
experimental readout: HDAC6 selectivity (fold)

a. CC(C)N1CC(C(=O)N(Cc2ccc(-c3nnc(C(F)F)o3)cc2F)c2ccccc2)C1
b. O=C(c1ccccc1)N(Cc1ccc(-c2nnc(C(F)(F)F)o2)cc1)c1ccccc1
c. O=C(C1CN(C(=O)C(F)(F)F)C1)N(Cc1ccc(-c2nnc(C(F)(F)F)o2)cc1)c1ccccc1
Q: Place the items in sequence of falling HDAC6 selectivity (fold). // list labels; follow requested order
Result: a, c, b

* * *

# system name: human recombinant HDAC6 (Homo sapiens, UniProt Q9UBN7)
# Construct: purchased Calbiochem 382180
# test description: HDAC enzyme activity inhibition assay (HDAC6, fluorimetric kit)
# Type: biochemical
# settings: HDAC6 versus HDAC1
experimental readout: HDAC6 selectivity (fold)

For orientation, consider the following solved cases.
CC(C)(C)OC(=O)N1CCC(C(=O)N(Cc2ccc(-c3nnc(C(F)(F)F)o3)cc2)c2ccccc2)CC1; 36
O=C(C1CCN(C(=O)C(F)(F)F)CC1)N(Cc1ccc(-c2nnc(C(F)F)o2)cc1F)c1ccccc1; 714
O=C(CN1CCS(=O)(=O)CC1)N(Cc1ccc(-c2nnc(C(F)F)o2)cc1F)c1ccc(F)c(Cl)c1; 690
CC(C)N1CCC(C(=O)N(Cc2ccc(-c3nnc(C(F)(F)F)o3)cc2F)c2ccccc2)CC1; 735
CN1CCC(C(=O)N(Cc2ccc(-c3nnc(C(F)F)o3)cc2F)c2ccccc2)CC1; 1136
CCC(=O)N1CC(C(=O)N(Cc2ccc(-c3nnc(C(F)F)o3)cc2F)c2ccccc2)C1; 2564
CCCCN1CC(C(=O)N(Cc2ccc(-c3nnc(C(F)F)o3)cc2F)c2cccc(F)c2)C1; 1235
CC(C)(C)OC(=O)N1CC(C(=O)N(Cc2ccc(-c3nnc(C(F)(F)F)o3)cc2)c2ccccc2)C1; 109

a. O=C(C1CCS(=O)(=O)CC1)N(Cc1ccc(-c2nnc(C(F)F)o2)cc1F)c1ccc(F)c(Cl)c1
b. CCN1CCC(C(=O)N(Cc2ccc(-c3nnc(C(F)F)o3)cc2F)c2ccccc2)CC1
Q: Which record shows the lower HDAC6 selectivity (fold): the first, a , or the second, b ? // output: label of the selected item
Result: a

I. CCS(=O)(=O)N1CC(C(=O)N(Cc2ccc(-c3nnc(C(F)F)o3)cc2F)c2cccc(F)c2)C1
II. CN1CCC(C(=O)N(Cc2ccc(-c3nnc(C(F)(F)F)o3)cc2)c2ccccc2)CC1
III. CCN1CC(C(=O)N(Cc2ccc(-c3nnc(C(F)F)o3)cc2F)c2cccc(F)c2)C1
Q: With regard to HDAC6 selectivity (fold), arrange the entries in ascending order, please. Labels, requested order.
Result: II, III, I
(II: 478 fold, III: 1754 fold, I: 2632 fold)
